# Test system: primary mouse hepatocytes
# procedureSummary: Gene expression (Affymetrix Mouse Genome 430 2.0) in primary mouse hepatocytes, true vs false GTX, 24 h and 48 h
# experimentalConditions: 48 h; log2, corrected for vehicle control
Could you please report measured Gene expression NM_030697 average for the items listed next?

Query CN(C)N=O yields Gene expression NM_030697 average of 2.5583

Query CC(=O)Nc1ccc2c(c1)Cc1ccccc1-2 yields Gene expression NM_030697 average of −0.4783

Query Nc1ccccc1C(=O)O yields Gene expression NM_030697 average of −0.6238

Query O=c1c(O)c(-c2ccc(O)c(O)c2)oc2cc(O)cc(O)c12 yields Gene expression NM_030697 average of 0.08597

Query Nc1ccc([N+](=O)[O-])cc1N yields Gene expression NM_030697 average of −0.3339

Query c1ccc2c(c1)cc1ccc3cccc4ccc2c1c34 yields Gene expression NM_030697 average of 1.3687
